Biological target: TR-α (Homo sapiens)
Sequence (P10827 1-410 isoform P10827-2): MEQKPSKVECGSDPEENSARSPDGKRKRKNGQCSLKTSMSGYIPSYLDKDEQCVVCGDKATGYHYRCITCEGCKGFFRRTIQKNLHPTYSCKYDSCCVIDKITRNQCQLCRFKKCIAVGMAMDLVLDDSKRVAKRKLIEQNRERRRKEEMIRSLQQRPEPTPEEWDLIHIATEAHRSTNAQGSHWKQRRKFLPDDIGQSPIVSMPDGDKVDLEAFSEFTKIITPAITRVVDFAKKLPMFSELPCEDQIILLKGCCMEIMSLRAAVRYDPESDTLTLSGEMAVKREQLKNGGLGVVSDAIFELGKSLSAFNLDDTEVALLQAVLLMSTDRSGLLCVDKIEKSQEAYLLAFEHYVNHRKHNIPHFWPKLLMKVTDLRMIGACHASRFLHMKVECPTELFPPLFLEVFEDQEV
Test: In vitro TR-α activity (in-house protocol)
Assay type: cell-based
Settings: Conc. 1000 nM
Experimental: Invitro TR-α & TR-β activities were determined as per in-house protocols and the results of representative compounds are provided in tables 1 & 2 below as a proof of the efficacies of the novel class of compounds disclosed above.
measure: TR-α Fold Induction w.r.t T3(100 nm)

CC(C)c1cc(Oc2c(Cl)cc(N(CC(=O)O)CC(=O)O)cc2Cl)ccc1O | 46.21
O=C(O)CN(C(=O)Oc1ccc(O)cc1)c1cc(Cl)c(Oc2ccc(O)c(S(=O)(=O)N3CCOCC3)c2)c(Cl)c1 | 28.11
Cc1cc(N(CC(=O)O)CC(=O)O)cc(C)c1Oc1ccc(O)c(C(C)C)c1 | 63.71
CCOC(=O)N(CC(=O)O)c1cc(Cl)c(Oc2ccc(O)c(C(=O)c3ccc(Cl)s3)c2)c(Cl)c1 | 53.12

Param readout = TR-α Fold Induction w.r.t T3(100 nm); param system = TR-α (Homo sapiens); param query = CCc1cc(Oc2c(Cl)cc(N(CC(=O)O)C(=O)Oc3ccc(O)cc3)cc2Cl)ccc1O ; response: value
45.08

Value wanted: TR-α Fold Induction w.r.t T3(100 nm) (TR-α (Homo sapiens)) of entry CCOC(=O)N(CC(=O)O)c1cc(Cl)c(Oc2ccc(O)c(C(=O)c3ccc(F)cc3)c2)c(Cl)c1
33.74

Write down the reported TR-α Fold Induction w.r.t T3(100 nm) of CC(C)(C)c1cc(Oc2c(Cl)cc(N(CC(=O)O)C(=O)Oc3ccc(O)cc3)cc2Cl)ccc1O , test system: TR-α (Homo sapiens).
72.06

----------
Below, each entry is listed alongside its reported log10 of EC50.
target: TR-β (Homo sapiens, UniProt P10828); test: In vitro TR-β activity (in-house protocol)
Sequence (P10828 whole entry): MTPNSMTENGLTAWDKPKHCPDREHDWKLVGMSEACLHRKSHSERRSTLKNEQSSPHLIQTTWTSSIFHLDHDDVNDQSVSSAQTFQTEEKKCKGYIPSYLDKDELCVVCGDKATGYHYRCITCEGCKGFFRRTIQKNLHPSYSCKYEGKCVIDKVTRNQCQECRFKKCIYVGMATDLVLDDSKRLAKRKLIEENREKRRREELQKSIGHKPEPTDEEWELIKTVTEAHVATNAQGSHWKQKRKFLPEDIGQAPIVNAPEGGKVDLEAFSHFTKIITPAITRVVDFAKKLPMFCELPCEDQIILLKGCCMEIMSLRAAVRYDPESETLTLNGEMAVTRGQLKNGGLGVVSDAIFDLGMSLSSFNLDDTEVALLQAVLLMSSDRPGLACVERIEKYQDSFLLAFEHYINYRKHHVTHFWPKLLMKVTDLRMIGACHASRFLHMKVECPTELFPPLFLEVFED
In our notation, the value equals log10 of EC50 in nM.

CCC(C)c1cc(Oc2c(Cl)cc(N(CC(=O)O)C(=O)Oc3ccc(O)cc3)cc2Cl)ccc1O (stereo not shown) | 0.41
CCOC(=O)N(CC(=O)O)c1cc(Cl)c(Oc2ccc(O)c(C(C)C)c2)c(Cl)c1 | 2.16

Attention now turns to another entry.
Name the recorded log10 of EC50 for O=C(O)CN(C(=O)Oc1ccc(O)cc1)c1cc(Cl)c(Oc2ccc(O)c(S(=O)(=O)N3CCCC3)c2)c(Cl)c1 .
2.40
